test: Pharmacokinetics: onvansertib plasma concentrations by LC/MS-MS; type: in vivo, human; conditions: human, plasma, oral, 60 mg/m^2, Cycle 1 day 5, mean ± SD; 60 mg/m^2 + Decitabine; 3 patients; read-out: AUC(0-24)

[
  {
    "molecule": "CN1CCN(c2ccc(OC(F)(F)F)c(Nc3ncc4c(n3)-c3c(c(C(N)=O)nn3CCO)CC4)c2)CC1 [onvansertib]",
    "AUC(0-t)": "16.3 µM·h"
  }
]

----------
Experiment: Pharmacokinetics: onvansertib plasma concentrations by LC/MS-MS
Format: in vivo, human
Conditions: human, plasma, oral, Cycle 1 day 5, mean ± SD; 40 mg/m^2 + Decitabine; 4 patients
Procedure: Pharmacokinetics: Blood samples were collected from patients for pharmacokinetic analysis on days 1 and 5 at predose; at 0.5, 1, 2, 3, 4, 8, and 24 hours after administration of onvansertib; and once on days 8, 15, and 22. Onvansertib plasma concentrations were determined by LC/MS-MS at PRA Bioanalytical Laboratory. […]
value.kind: Cmax (nM)

[
  {
    "molecular.string": "CN1CCN(c2ccc(OC(F)(F)F)c(Nc3ncc4c(n3)-c3c(c(C(N)=O)nn3CCO)CC4)c2)CC1",
    "recorded.number": 539
  }
]

----------
assay: Pharmacokinetics: onvansertib plasma concentrations by LC/MS-MS; type: in vivo, human; details: human, plasma, oral, 60 mg/m^2, Cycle 1 day 5, mean ± SD; 60 mg/m^2 + Decitabine; 3 patients
value.kind: Tmax (h)

[
  {
    "molecular.string": "CN1CCN(c2ccc(OC(F)(F)F)c(Nc3ncc4c(n3)-c3c(c(C(N)=O)nn3CCO)CC4)c2)CC1",
    "units": "h",
    "recorded.number": 3.3
  }
]

----------
assay: Pharmacokinetics: onvansertib plasma concentrations by LC/MS-MS; type: in vivo, human; conditions: human, plasma, oral, Cycle 1 day 5, mean ± SD; 27 mg/m^2 + Decitabine; 3 patients; read-out: t1/2 (converted)

[
  {
    "compound": "CN1CCN(c2ccc(OC(F)(F)F)c(Nc3ncc4c(n3)-c3c(c(C(N)=O)nn3CCO)CC4)c2)CC1 [onvansertib]",
    "units": "h",
    "half-life": 16
  }
]

----------
assay: Pharmacokinetics: onvansertib plasma concentrations by LC/MS-MS; format: in vivo, human; settings: human, plasma, oral, 40 mg/m^2, Cycle 1 day 5, mean ± SD; 40 mg/m^2 + LDAC; 3 patients

[
  {
    "molecular.string": "CN1CCN(c2ccc(OC(F)(F)F)c(Nc3ncc4c(n3)-c3c(c(C(N)=O)nn3CCO)CC4)c2)CC1",
    "units": "nM",
    "Cmax": 350
  }
]

----------
test: Pharmacokinetics: onvansertib plasma concentrations by LC/MS-MS; assay type: in vivo, human; details: human, plasma, oral, 60 mg/m^2, Cycle 1 day 5, mean ± SD; 60 mg/m^2 + LDAC; 5 patients

[
  {
    "molecular.string": "CN1CCN(c2ccc(OC(F)(F)F)c(Nc3ncc4c(n3)-c3c(c(C(N)=O)nn3CCO)CC4)c2)CC1",
    "Cmax, nM": 905
  }
]

----------
assay: Pharmacokinetics: onvansertib plasma concentrations by LC/MS-MS; format: in vivo, human; conditions: human, plasma, oral, 12 mg/m^2, Cycle 1 day 5, mean ± SD; 12 mg/m^2 + LDAC; 3 patients; read-out: t1/2 (converted)

[
  {
    "molecular.string": "CN1CCN(c2ccc(OC(F)(F)F)c(Nc3ncc4c(n3)-c3c(c(C(N)=O)nn3CCO)CC4)c2)CC1",
    "units": "h",
    "half-life": 32
  }
]
